B1: PRAME (parent)
chain: KKLKIFAMPMQDIKMILKMVQLDS

variants of: B1; test: protein stability index of a GFP-peptide fusion (GPS, HEK-293T) (PSI 1-6); higher = more stable; conditions: c terminus: a fixed tail appended;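 also: lentivirally expressed fusions sorted by FACS into six bins by GFP to DsRed ratio, PSI derived from sequencing read proportions per bin multiplied by bin number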
Criterion: protein stability index meeting or surpassing 2. Met: Condition met. Not met: Condition not met.

Example entries and their recorded answers appear below.
D23F = Condition met
F6E = Condition not met
M19H = Condition met
M19N = Condition met
A7C = Condition met
K14S = Condition not met
K18Q = Condition met
K18F = Condition met
I5D = Condition not met
M10Q = Condition not met

Request: Is protein stability index for M15T at or above 2?
Result: Condition met

Request: Is protein stability index for K2T at or above 2?
Result: Condition met

Request: Is protein stability index for I5F at or above 2?
Result: Condition met

Request: Is protein stability index for I16E at or above 2?
Result: Condition not met
